Measured values drawn from patent US20240043427A1 for this set.

# Lookup of reported IC50 keyed by entry
# tested.system: UniProtKB P21589
# Sequence (P21589 27-574): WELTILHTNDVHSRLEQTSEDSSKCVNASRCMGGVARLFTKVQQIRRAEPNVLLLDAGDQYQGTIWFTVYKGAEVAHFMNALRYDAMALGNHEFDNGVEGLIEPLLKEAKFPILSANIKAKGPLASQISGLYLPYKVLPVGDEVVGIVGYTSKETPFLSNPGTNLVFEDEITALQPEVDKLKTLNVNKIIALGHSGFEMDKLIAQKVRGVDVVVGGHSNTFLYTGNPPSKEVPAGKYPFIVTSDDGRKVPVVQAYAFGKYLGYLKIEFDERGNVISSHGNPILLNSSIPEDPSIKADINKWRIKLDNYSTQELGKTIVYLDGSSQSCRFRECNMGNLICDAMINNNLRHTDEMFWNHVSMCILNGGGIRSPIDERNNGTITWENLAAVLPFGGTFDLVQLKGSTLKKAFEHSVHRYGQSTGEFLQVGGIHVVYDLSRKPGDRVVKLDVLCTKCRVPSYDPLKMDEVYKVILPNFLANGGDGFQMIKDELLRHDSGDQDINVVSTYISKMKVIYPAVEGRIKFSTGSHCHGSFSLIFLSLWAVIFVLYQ
# Type: biochemical
# assay.setup: 1 mM NaH2PO4 in enzyme buffer, CD73 0.3 nM, AMP 15 uM
Expressed in nM, but write only the number.

Example cases with answers are listed next.
| compound | unit.info | data.value |
| --- | --- | --- |
| O=c1[nH]cc(-c2cc([C@H]3C[C@@H]3c3cccc4cnccc34)c3nccn3n2)c(=O)[nH]1 (racemic) | nM | 72.5 |
| O=C1N(CC(F)(F)F)c2cc([C@H]3C[C@@H]3c3cc(-c4c[nH]c(=O)[nH]c4=O)nn4c(F)cnc34)ccc2C12CC2 | nM | 0.69 |
| O=c1[nH]cc(-c2cc(NC[C@@H](F)c3ccccc3)c3nccn3n2)c(=O)[nH]1 | nM | 102 |

Kindly consider the entry below.
(Q) Give IC50 (UniProtKB P21589) of the following compound: O=C(c1cn2nc(-c3c[nH]c(=O)[nH]c3=O)cc([C@H]3C[C@@H]3c3ccc(F)cc3)c2n1)N1CC(F)(F)C1 (racemic)
(A) 85.2
